FYI, the data here is from the RNAGym collection of RNA variant scans (doi:10.7554/elife.80360).

B1: HDV Ribozyme (parent)
chain: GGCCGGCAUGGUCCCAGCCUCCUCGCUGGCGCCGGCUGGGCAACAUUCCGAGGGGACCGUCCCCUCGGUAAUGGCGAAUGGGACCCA

variants of: B1; test: self-cleavage, relative activity (ratio to wild type); higher = more cleavage; co-transcriptional
Tag: true (1) if measured self-cleavage is not below 0.1, false (0) if it is.

C48U G73C = true (1)
C15U A16G = true (1)
C58G G67U = true (1)
U60A A83U = true (1)
U20C G82C = false (0)
G73U C85U = true (1)
C15G A78C = false (0)
G52U C61G = true (1)
G52U G55C = true (1)
G6U G39A = false (0)
A56U G67C = true (1)
C15U C49U = true (1)
G17U G82C = true (1)
A16G G73U = true (1)
U9C G25U = true (1)
C18A G40C = true (1)
C61A C84G = true (1)
C3U C18G = false (0)
U37G G53C = true (1)
G34C A83U = false (0)
A45G A77U = true (1)
C48U G50A = true (1)
C3A C4A = false (0)
G50C A56C = true (1)
U47A G68U = true (1)
C44G G53A = true (1)
C26U U69G = true (1)
G10C A45U = true (1)
C58U U60C = true (1)
C75U C86G = true (1)
C48A A56U = true (1)
C30U C75U = true (1)
G40U C58U = true (1)
C48A C63U = true (1)
G35U G38U = false (0)
U20C G81U = false (0)
U60G G73A = true (1)
C48U G54U = true (1)
A42C C86A = true (1)
C41U C44G = true (1)
G34U C62A = false (0)
C66U A78G = true (1)
C7G C36G = false (0)
G59A U72G = true (1)
C7U C41U = true (1)
G6C A45G = true (1)
G40A U69G = true (1)
A51U C84A = true (1)
C36A U72A = true (1)
G2U A71C = false (0)
G11A G25A = false (0)
C7U A77U = true (1)
C63U A78U = true (1)
C26G U37G = true (1)
G34A U46G = false (0)
C14U C22U = true (1)
G34A G55C = true (1)
A43U G82A = false (0)
C7G A8U = true (1)
G10A G73A = true (1)
C4A C24G = false (0)
G10U C22U = true (1)
G54A U60C = true (1)
G67U A71U = true (1)
A8G G38A = false (0)
G52U G68A = true (1)
A43C C48A = true (1)
G5U G76C = true (1)
G25U G73A = false (0)
G54A U65C = true (1)
G25U C44A = false (0)
C66G A87U = true (1)
C41G G68U = true (1)
U69A A71U = true (1)
G17C A87U = true (1)
G55U A87G = true (1)
C13G G17A = false (0)
G2A U37C = true (1)
G10U C58G = true (1)
G10U C26A = true (1)
G31U G38A = true (1)
C19A U46A = false (0)
A45G C57A = true (1)
G1A C62U = false (0)
G2C A42C = true (1)
C63G A78G = true (1)
A8C G17U = true (1)
A43U A78G = true (1)
C33G C84A = true (1)
U37A U72G = true (1)
